# experimental.protocol: Cell Viability - LYMP2-011 (AID 969);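 further: cells exposed to compound for 24 hours; 0% = DMSO only and full inhibition = 92 µM tetraoctylammonium bromide; nearly all actives have a fitted effect of over 60% in size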
# measurement.context: LYMP2-011 lymphoblastoid cells viability; series mostly up to 92.2 µM
Inconclusive results are not listed. Activity calls are given as the source filed them. The call rests on the fitted dose curve; in most records, active means well fitted cell-killing curve with a large enough effect; inconclusive means small, poorly fitted or top-dose-only effect; inactive means flat fitted curve, though single readings scatter.

[
  {
    "compound": "O=C(Cc1ccccc1)OCc1ccccc1",
    "outcome": "inactive"
  },
  {
    "compound": "O=C(O)C(Br)Br",
    "outcome": "inactive"
  },
  {
    "compound": "c1ccc(OCC2CO2)cc1 (centres undefined)",
    "outcome": "inactive"
  },
  {
    "compound": "C=C(Cl)CSC(=S)N(CC)CC",
    "outcome": "inactive"
  },
  {
    "compound": "Cl/C=C/CCl",
    "outcome": "inactive"
  },
  {
    "compound": "CC(C)(COCC1CO1)COCC1CO1 (centres undefined)",
    "outcome": "inactive"
  },
  {
    "compound": "Nc1ccc([N+](=O)[O-])cc1[N+](=O)[O-]",
    "outcome": "inactive"
  },
  {
    "compound": "CC(C)CC(C)N (centres undefined)",
    "outcome": "inactive"
  },
  {
    "compound": "CC[N+](=O)[O-]",
    "outcome": "inactive"
  },
  {
    "compound": "CCOC(=O)CBr",
    "outcome": "inactive"
  },
  {
    "compound": "O=[N+]([O-])c1c(Cl)c(Cl)c(Cl)c(Cl)c1Cl",
    "outcome": "inactive"
  },
  {
    "compound": "COc1cc(-c2ccc(N)c(OC)c2)ccc1N",
    "outcome": "inactive"
  },
  {
    "compound": "c1ccc(P(c2ccccc2)c2ccccc2)cc1",
    "outcome": "inactive"
  },
  {
    "compound": "Cc1ccc(N)cc1C",
    "outcome": "inactive"
  },
  {
    "compound": "O=c1ccc(=O)[nH][nH]1",
    "outcome": "inactive"
  },
  {
    "compound": "CN(C)C(=O)Nc1cccc(C(F)(F)F)c1",
    "outcome": "inactive"
  },
  {
    "compound": "COC(C)(C)C",
    "outcome": "inactive"
  },
  {
    "compound": "Nc1ccc(Cl)c(Cl)c1",
    "outcome": "inactive"
  },
  {
    "compound": "c1ccc(NNc2ccccc2)cc1",
    "outcome": "inactive"
  },
  {
    "compound": "Nc1ccccc1-c1ccccc1",
    "outcome": "inactive"
  },
  {
    "compound": "Cc1cc(N=Nc2ccccc2C)ccc1N",
    "outcome": "inactive"
  },
  {
    "compound": "Nc1ccc(Cc2ccc(N)cc2)cc1",
    "outcome": "inactive"
  },
  {
    "compound": "C=CCBr",
    "outcome": "inactive"
  },
  {
    "compound": "Cc1cc(Cl)ccc1O",
    "outcome": "inactive"
  }
]

---

# experimental.protocol: Cellular Toxicity (caspase-3) Jurkat (AID 655);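 further: cells exposed to compound for 16 h at 37 °C before reading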
# measurement.context: Jurkat caspase-3 activation, luminescence; at 92.2 µM (top of the series), DMSO = 0%, tamoxifen = 100%
# Excerpt: NIH Chemical Genomics Center [NCGC] NIH Molecular Libraries Screening Centers Network [MLSCN] National Institutes of Environmental Health Sciences [NIEHS] National Toxicology Program [NTP] We have developed a 1536-well cell-based assay for quantitative high throughput screening (qHTS) against a number of cell lines to determine in vitro caspase 3/7 of small molecules. […] 7. Detection; Luminescence; Viewlux plate reader […]
Inconclusive results are not listed.

[
  {
    "molecule": "S=c1[nH]c2ccccc2[nH]1",
    "caspase-3 activation / %": -0.402
  },
  {
    "molecule": "Nc1ccccc1-c1ccccc1",
    "caspase-3 activation / %": 2.93
  },
  {
    "molecule": "O=[N+]([O-])CCO",
    "caspase-3 activation / %": -0.445
  },
  {
    "molecule": "O=P(OCCCl)(OCCCl)OCCCl",
    "caspase-3 activation / %": -1.25
  },
  {
    "molecule": "CC[N+](=O)[O-]",
    "caspase-3 activation / %": 1.63
  },
  {
    "molecule": "CN(C)C(=O)Cl",
    "caspase-3 activation / %": -1.4
  },
  {
    "molecule": "ClCCOCOCCCl",
    "caspase-3 activation / %": -0.171
  },
  {
    "molecule": "c1ccc(C2CO2)cc1 (configuration not stated)",
    "caspase-3 activation / %": 1.66
  },
  {
    "molecule": "c1ccc2c(c1)CCNC2",
    "caspase-3 activation / %": 0.933
  },
  {
    "molecule": "CCN(N=O)C(N)=O",
    "caspase-3 activation / %": 0.577
  },
  {
    "molecule": "COC(=O)Nc1cccc(OC(=O)Nc2cccc(C)c2)c1",
    "caspase-3 activation / %": 1.17
  },
  {
    "molecule": "Oc1cc(Cl)ccc1Cl",
    "caspase-3 activation / %": 1.27
  },
  {
    "molecule": "OCCOCCO",
    "caspase-3 activation / %": -0.825
  },
  {
    "molecule": "C=CCBr",
    "caspase-3 activation / %": -0.133
  },
  {
    "molecule": "CN(C)C(=O)Nc1ccc(Cl)cc1",
    "caspase-3 activation / %": -0.0397
  },
  {
    "molecule": "c1ccc(Nc2ccc(Nc3ccccc3)cc2)cc1",
    "caspase-3 activation / %": 8.77
  },
  {
    "molecule": "C=CCO",
    "caspase-3 activation / %": 2.82
  },
  {
    "molecule": "Clc1ccc(C(Cl)(Cl)Cl)c(Cl)c1",
    "caspase-3 activation / %": -1.19
  },
  {
    "molecule": "CC(C)Br",
    "caspase-3 activation / %": 0.12
  },
  {
    "molecule": "CC(C)(C)OOC(=O)c1ccccc1",
    "caspase-3 activation / %": 6.04
  },
  {
    "molecule": "ClC(Cl)c1ccccc1",
    "caspase-3 activation / %": 2.34
  },
  {
    "molecule": "COC(=O)c1ccccc1N",
    "caspase-3 activation / %": 1.63
  },
  {
    "molecule": "CN(C)C(=O)Nc1cccc(C(F)(F)F)c1",
    "caspase-3 activation / %": 2.52
  },
  {
    "molecule": "O=[N+]([O-])c1ccccc1-c1ccccc1",
    "caspase-3 activation / %": 0.923
  },
  {
    "molecule": "CN=C=O",
    "caspase-3 activation / %": -0.0583
  },
  {
    "molecule": "[O-][Cl+2]([O-])O",
    "caspase-3 activation / %": -0.446
  },
  {
    "molecule": "[N-]=[N+]=[N-]",
    "caspase-3 activation / %": 1.16
  },
  {
    "molecule": "CCC(Cl)[N+](=O)[O-] (configuration not stated)",
    "caspase-3 activation / %": 1.33
  },
  {
    "molecule": "ClCC(Cl)CCl",
    "caspase-3 activation / %": 1.95
  },
  {
    "molecule": "ClC(Cl)Br",
    "caspase-3 activation / %": 0.703
  },
  {
    "molecule": "CC(C)(Cl)Cl",
    "caspase-3 activation / %": -0.572
  },
  {
    "molecule": "Nc1ccc(Cl)c(Cl)c1",
    "caspase-3 activation / %": 0.952
  },
  {
    "molecule": "CCCBr",
    "caspase-3 activation / %": 0.185
  },
  {
    "molecule": "O=[N+]([O-])c1ccc(O)c([N+](=O)[O-])c1",
    "caspase-3 activation / %": -6.84
  },
  {
    "molecule": "CCC#N",
    "caspase-3 activation / %": -0.741
  },
  {
    "molecule": "c1ccc(NNc2ccccc2)cc1",
    "caspase-3 activation / %": 0.504
  },
  {
    "molecule": "CC(=O)CCC(C)=O",
    "caspase-3 activation / %": 0.378
  }
]

Data origin, for the record: PubChem BioAssay (NCATS)
